The values you see were collected from patent US20230382949A1.

# target-system: human Apelin receptor (Homo sapiens, UniProt P35414)
# Construct: host or cells: CHO-K1 cells
# Sequence (P35414 whole entry): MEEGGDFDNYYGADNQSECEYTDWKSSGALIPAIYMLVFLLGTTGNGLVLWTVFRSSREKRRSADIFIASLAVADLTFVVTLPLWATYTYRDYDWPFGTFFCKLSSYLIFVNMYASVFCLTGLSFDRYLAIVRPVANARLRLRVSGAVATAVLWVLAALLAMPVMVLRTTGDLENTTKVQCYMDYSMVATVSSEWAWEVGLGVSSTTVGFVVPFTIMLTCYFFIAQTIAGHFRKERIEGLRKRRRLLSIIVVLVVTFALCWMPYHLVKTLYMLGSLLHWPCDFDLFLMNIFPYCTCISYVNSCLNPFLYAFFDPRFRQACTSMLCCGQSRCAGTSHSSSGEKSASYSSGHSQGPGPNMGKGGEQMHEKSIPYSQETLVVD
# Sequence (P32121 whole entry partner): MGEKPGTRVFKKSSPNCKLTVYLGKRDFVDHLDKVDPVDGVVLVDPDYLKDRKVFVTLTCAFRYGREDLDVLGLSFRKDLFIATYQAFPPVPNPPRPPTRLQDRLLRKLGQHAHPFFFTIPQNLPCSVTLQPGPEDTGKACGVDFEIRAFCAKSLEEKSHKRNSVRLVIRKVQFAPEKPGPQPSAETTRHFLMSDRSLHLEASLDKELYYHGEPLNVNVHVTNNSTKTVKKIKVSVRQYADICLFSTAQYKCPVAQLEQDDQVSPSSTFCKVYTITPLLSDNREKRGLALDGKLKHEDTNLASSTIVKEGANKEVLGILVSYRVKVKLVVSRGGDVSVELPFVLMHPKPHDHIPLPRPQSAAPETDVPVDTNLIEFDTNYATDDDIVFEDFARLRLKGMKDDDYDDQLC
# assay: β-arrestin accumulation assay, functional agonism of human Apelin receptors
# Assay type: cell-based
pEC50: −log10 of the molar value. Starred links: 1 amine or outer side, 2 acyl side, 3 side chain; linkers in the order of their positions; H or OH if unused. Non-standard residues stand in square brackets, D forms with d. Residues, ends and D or L forms follow the SMILES beside them. *: point of attachment. Ala(piperidin-4-yl) = O=C([C@H](CC1CCN([*:3])CC1)N[*:1])[*:2]; Malonyl(2,2-Me2,histaminyl) = CC(C)(C(=O)NCCc1cnc[nH]1)C(=O)*; dBip = N[C@H](Cc1ccc(-c2ccccc2)cc1)C(=O)O; Oic = O=C(O)[C@@H]1C[C@@H]2CCCC[C@@H]2N1; Phe(4-Br) = N[C@@H](Cc1ccc(Br)cc1)C(=O)O; X1 = CC(C)(C(=O)NCCc1ccccc1)C(=O)*; hArg = N=C(N)NCCCC[C@H](N)C(=O)O; Nle = CCCC[C@H](N)C(=O)O; Aib = CC(C)(N)C(=O)O
observable: pEC50

{"compound": "CC(C)C[C@H](NC(=O)[C@@H](CCCNC(=N)N)NC(=O)C1C2CC2CN1C(=O)[C@H](CCCCNC(=N)N)NC(=O)[C@H](CCC(N)=O)NC(=O)[C@@H](CCCNC(=N)N)NC(=O)C(C)(C)C(=O)NCCc1c[nH]cn1)C(=O)NC(C)(C)C(=O)N[C@@H](Cc1c[nH]cn1)C(=O)N[C@@H](CC1CCNCC1)C(=O)NCC(=O)N1[C@H](C(=O)N[C@@H](Cc2ccc(Br)cc2)C(=O)N2CCC[C@H]2C(=O)N[C@H](Cc2ccc(-c3ccccc3)cc2)C(=O)O)C[C@@H]2CCCC[C@@H]21 (single isomer, unassigned) [37 Isomer 1]", "pEC50": "< 4.00"}

## Input Given the entry CC(C)C[C@H](NC(=O)[C@@H](CCCNC(=N)N)NC(=O)[C@@H]1CCCN1C(=O)[C@H](CCCCNC(=N)N)NC(=O)[C@H](CCC(N)=O)NC(=O)C(C)(C)C(=O)NCCc1ccccc1)C(=O)NC(C)(C)C(=O)N[C@@H](Cc1c[nH]cn1)C(=O)N[C@@H](CC1CCNCC1)C(=O)NCC(=O)N1[C@H](C(=O)N[C@@H](Cc2ccc(Br)cc2)C(=O)N2CCC[C@H]2C(=O)N[C@H](Cc2ccc(-c3ccccc3)cc2)C(=O)O)C[C@@H]2CCCC[C@@H]21 [Example 45] (X1-Q[hArg]P[dR]L[Aib]H[Ala(piperidin-4-yl)]G[Oic][Phe(4-Br)]P[dBip]-OH) , what pEC50 was observed with human Apelin receptor (Homo sapiens, UniProt P35414)?
## Output < 5.00

## Input Given the entry CCCC[C@H](NC(=O)[C@@H]1C[C@@H]2CCCC[C@@H]2N1C(=O)CNC(=O)[C@H](CC1CCNCC1)NC(=O)[C@H](Cc1c[nH]cn1)NC(=O)[C@@H](C)NC(=O)[C@H](CC(C)C)NC(=O)[C@H](CCCNC(=N)N)NC(=O)[C@@H]1CCCN1C(=O)[C@H](CCCNC(=N)N)NC(=O)[C@H](CCC(N)=O)NC(=O)C(C)(C)C(=O)NCCc1cnc[nH]1)C(=O)N1CCC[C@H]1C(=O)N[C@H](Cc1ccc(-c2ccccc2)cc1)C(=O)O [Example 59] ({Malonyl(2,2-Me2,histaminyl)}-QRPRL[dA]H[Ala(piperidin-4-yl)]G[Oic][Nle]P[dBip]-OH) , what pEC50 was observed with human Apelin receptor (Homo sapiens, UniProt P35414)?
## Output < 5.00
